Cited source for all entries: PubChem BioAssay (NCI)

System: EKVX NSCLC
test-description: NCI-60 one-dose screen, 48 h
reported-conditions: 10 µM unless noted
About 83,000 compounds went through this panel and 20% of them were active in at least one assay; those are over-represented in the sample as a whole. Activity calls are given as the source filed them. How the source made its calls: active means growth percent below 10; inactive means the rest.
Hi there, use one of these labels in your reply, thanks! active, inactive

(Q) I'd appreciate the recorded outcome for `COc1cccc(/C=C2\C=C(c3ccccc3)N(Cc3ccccc3)C2=O)c1` from this test.
(A) inactive

(Q) Dear colleague, could you share the recorded outcome for `CCOc1c(B(O)O)cccc1-c1nc2ccc3[nH]ncc3c2c2c1CCCC2` when you have a moment?
(A) inactive

(Q) Per the assay record, what outcome was assigned to `Oc1c(I)cc(I)cc1CNCCCN(Cc1ccccn1)Cc1ccccn1` ?
(A) active

(Q) Dear all, I need the recorded test outcome for `NCCNc1nc2ccccc2c2c(=O)c3cccc(F)c3sc12` , thank you.
(A) inactive

(Q) What did this assay record as the result for NC[C@@H]1O[C@H](O[C@@H]2[C@@H](CO)OC(O[C@@H]3[C@@H](O)[C@H](N)C[C@H](N)[C@H]3OC3O[C@H](CN)[C@@H](O)[C@H](O)[C@H]3N)[C@@H]2O)[C@H](N)[C@@H](O)[C@@H]1O (stereo partly specified) ?
(A) inactive

(Q) Outcome logged for `c1ccc(-c2nc3nonc3nc2-c2ccccc2)cc1` in this assay:
(A) inactive

(Q) Hello, I am checking results. What call was entered for C=C1C(=O)O[C@H]2[C@H]1CC/C(COC(=O)C(C)c1ccc(CC(C)C)cc1)=C\CC[C@@]1(C)O[C@@H]21 (stereo partly specified) ?
(A) inactive

(Q) Please indicate how the test categorized CCN(CC)c1ccc(C2=NN(C(C)=O)C(c3cc(OC)c(OC)c(OC)c3)C2)cc1 (stereo unspecified) .
(A) inactive

(Q) Which outcome was entered for the molecule `O=C(N/N=C/[C@@H](O)[C@H](O)[C@H](O)CO)c1ccc(NC(=O)c2cccnc2)cc1` in this test?
(A) inactive

(Q) Recorded test call requested for `COc1cc2cc(Oc3ccc(NC(=O)Nc4ccc(F)c(C(F)(F)F)c4)cc3)c(C)nc2cc1OCCN1CCOCC1`
(A) inactive

(Q) Which outcome was entered for the molecule `Cc1cccc2c(=O)c3c(sc12)c(NCc1ccccc1)nc1ccccc13` in this test?
(A) inactive

(Q) Given `O=c1c2cc(F)ccc2sc2c(NCCCNCCO)nc3ccccc3c12` , state the outcome it received in this test.
(A) inactive

(Q) What did this assay record as the result for `Cc1ccc2c(-c3cc(-c4ccccc4)nc(N)c3C#N)cc(=O)oc2c1` ?
(A) inactive

(Q) What classification did `C[C@]12CC[C@@H]3c4cc(OC(F)F)c(OS(N)(=O)=O)cc4CC[C@H]3[C@@H]1CC[C@@H]2O` end up with in this test?
(A) inactive

(Q) Hey, what did the test say about `Cc1ccc(-c2nc(N3CCN(CC(=O)Nc4ccc(Cl)cc4)CC3)c3ccccc3n2)cc1` ?
(A) inactive

(Q) I would be grateful if you could indicate the recorded call for O=C(O)C(c1ccccc1)N1C(=O)CSC1=S (stereo unspecified) .
(A) inactive

(Q) Which outcome was assigned to `O=C1/C(=C/c2ccccc2[N+](=O)[O-])Oc2ccc(O)c(O)c21` in this test?
(A) inactive

(Q) Which result was noted for this molecule in the test: `Cc1cccc2c1S/C(=C/c1ccc([N+](=O)[O-])cc1)C2=O`
(A) inactive

(Q) Give the logged outcome of this assay for the following molecule: `COc1nc2ccccc2cc1-c1nc2c(cnn2-c2ccccc2)c(=O)[nH]1`
(A) inactive

(Q) Which outcome did this test record for the molecule `CCN(CC)CCNC(=O)c1cn2ncnc(Oc3ccc(NC(=O)Nc4ccc(Cl)c(C(F)(F)F)c4)cc3)c2c1C` ?
(A) active

(Q) Please state the recorded outcome for this molecule: `COc1ccc(OC)c(/C=C/c2nnc(Nc3ccccc3)o2)c1`
(A) inactive

(Q) Record request — test call for `CN1CCN(c2ccc(-c3cc4c(Nc5ccc(F)c(Cl)c5)ncnn4c3)cn2)CC1`
(A) inactive

(Q) Status in this test for `c1ccc(Nc2cc(-c3cccnc3)[nH]n2)cc1` ?
(A) inactive

(Q) Assay outcome for `Nc1nn(C(=O)Nc2ccc(Cc3ccccc3)cc2)c2ccc(Cl)cc12` : what was it?
(A) inactive

(Q) Record request — test call for `c1ccc2c(c1)Nc1ccncc1S2`
(A) inactive

(Q) Answer briefly: the call reported for `O=c1c2cc(F)cc(Cl)c2sc2c(NCCCNCCO)nc3ccccc3c12` in this assay.
(A) inactive

(Q) State the result this test recorded for `O=C(CCN1C(=O)/C(=C/c2ccc(O)cc2)SC1=S)Nc1ccc(Cl)cc1` .
(A) inactive

(Q) Please indicate how the test categorized `CCCCCCCCCCCCCCCCCCOc1ccccc1CC(=O)OCC[N+](CC)(CC)CC` .
(A) inactive

(Q) In this assay, the call recorded for `O=C1c2cccc3cccc(c23)C(=O)N1Nc1nc(N2CCOCC2)nc(N2CCN(c3ccccc3)CC2)n1` was what?
(A) inactive

(Q) GET /call?item= `O=c1c2cccc(F)c2sc2c(NCCCNCCO)nc3ccccc3c12` returns the recorded outcome of this test.
(A) inactive

(Q) Assay outcome for CCOC(=O)C1=C(N)Oc2c(sc3c(C)cccc23)C1c1ccc(F)cc1 (stereo unspecified) : what was it?
(A) inactive
